Molecular target: T1, human MSLN-R3 protein (human, UniProt Q13421 487-598)
T1 construct: also called hMSLN-R3
T1 sequence (Q13421 495-606, form in doubt): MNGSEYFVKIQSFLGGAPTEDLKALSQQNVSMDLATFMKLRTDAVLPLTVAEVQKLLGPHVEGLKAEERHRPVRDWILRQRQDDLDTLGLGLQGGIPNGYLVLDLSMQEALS
Assay: ELISA on coated antigen, antibody 10 nM
reported_endpoint: OD450
State the result as a value with its unit after it.

Problem: OD450 lookup needed for F7.44.20-H9 (scFv, not shown: small tags and cut ends, also called S009-F7.44.20 humanized antibody VH2 + VL1) scFv: EVQLVQSGAEVKKPGASVKVSCKASGYTFTDYNMDWVRQAPGQGLEWMGDINPSTGGTIYNQKFNGRVTMTEDKSASTVYMELSSLRSEDTAVYYCARRRIGTGYFDVWGQGTTVTVSSGGGGSGGGGSGGGGSEIVLTQSPDFQSVTPKEKVTITCSASSSVISSYLSWYQQKPDQSPKLLIYRTSNLASGVPSRFSGSGSGTDFTLTINSLEAEDAATYYCHQWSSFPYTFGGGTKVEIK , thanks.
Result: 2.1 OD450

Problem: What do you have for F7.44.20-VL-VH (scFv, not shown: small tags and cut ends, also called S009-F7.44.20 parental variable regions, VL-VH order) scFv: QIVLTQSPALMSASPGEKVTLTCSASSSVISSYLSWYQQKPGSSPKLLIYRTSNLASGVPARFSGSGSGTSYSLTISSMEAEDAASYFCHQWSSFPYTFGGGTKLEIKGGGGSGGGGSGGGGSEVQLQQSGPELVKPGASVKIPCKASGYTFTDYNMDWVKQSHGKSLEWIGDINPSTGGTIYNQKFNGKATLTEDKSASTVYMEFRSLTSDDTAVYYCARRRIGTGYFDVWGTGTTVTVSS ?
Result: 1.68 OD450

Problem: Here is the next binder: Tab111 (scFv, not shown: small tags and cut ends, also called YP218 VL-(G4S)3-VH-his antibody; positive control) scFv: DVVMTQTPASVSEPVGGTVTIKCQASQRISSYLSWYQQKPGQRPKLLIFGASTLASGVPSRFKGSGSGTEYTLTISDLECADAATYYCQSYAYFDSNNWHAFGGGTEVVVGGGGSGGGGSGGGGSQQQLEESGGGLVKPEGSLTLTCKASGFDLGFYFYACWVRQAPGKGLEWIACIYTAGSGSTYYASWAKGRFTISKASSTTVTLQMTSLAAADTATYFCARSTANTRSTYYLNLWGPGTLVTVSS
Result: 1.88 OD450
